# Test system: SK-N-MC
# assay-explanation: Antiproliferative activity against human SK-N-MC cells after 72 hrs by MTT assay
# Format: functional, cell-based
pIC50: −log10 of the molar value.
Binary call on pIC50: T from 6 upward, F beneath that.

Some solved cases for reference:
smiles-repr: CCNC(=S)N/N=C/c1ccc2ccccc2n1
class-name: F
//
smiles-repr: CNC(=S)N/N=C/c1c(O)ccc2cccnc12
class-name: T
//
smiles-repr: Oc1cccc2ccc(/C=N/NC(=S)Nc3ccccc3)nc12
class-name: F

## Task Threshold query (pIC50 >= 6) on CN(C)C(=S)N/N=C/c1c(O)ccc2cccnc12
## Result T

---

# Tested on: SK-N-MC
# assay-explanation: Iron chelation activity in human SK-N-MC cells assessed as inhibition of 59Fe uptake from transferrin complex at 25 uM after 3 hrs by gamma scintillation counting relative to control
# Type: functional
# Design: scale not given: the % may be the effect or the level left
measure: Activity (%)
Unit % implied. Number only.

The cases that follow already have their Activity on record.
smiles-repr: CCNC(=S)N/N=C/c1c(O)ccc2cccnc12
Activity, %: 24

smiles-repr: CN(C)C(=S)N/N=C/c1ccc2ccccc2n1
Activity, %: 49

smiles-repr: CCNC(=S)N/N=C/c1ccc2ccccc2n1
Activity, %: 49

smiles-repr: CNC(=S)N/N=C/c1c(O)ccc2cccnc12
Activity, %: 45

smiles-repr: Oc1ccc2cccnc2c1/C=N/NC(=S)Nc1ccccc1
Activity, %: 49

## Task Which Activity value is on record for CNC(=S)N/N=C/c1ccc2ccccc2n1 ?
## Result 49

## Task Query (molecule): CN(C)C(=S)N/N=C/c1ccc2cccc(O)c2n1 ; field requested: Activity
## Result 14

## Task Dear colleague, I am looking for the recorded Activity of the following molecule: CNC(=S)N/N=C/c1ccc2cccc(O)c2n1
## Result 49

---

# selectivity ratio values compiled below
# assay-explanation: Therapeutic index, ratio of IC50 for human NHDF cells to IC50 for human SK-N-MC cells
# Format: cell-based
# condition-summary: NHDF cells and SK-N-MC cells, read-out: Ratio IC50
Answer as a number with no unit attached.

smiles-repr: CN(C)C(=S)N/N=C/c1c(O)ccc2cccnc12
measure: selectivity ratio
observed-value: 131

## Task Query: selectivity ratio; subject: CN(C)C(=S)N/N=C/c1ccc2ccccc2n1
## Result 14

---

# System: SK-N-MC
# assay-explanation: Antiproliferative activity against human SK-N-MC cells after 72 hrs by MTT assay
# Assay type: functional, cell-based
measure: pIC50
Answer as the number alone; pIC50 is minus log10 of concentration in mol/L.

smiles-repr: O=C(N/N=C/c1c(O)ccc2ccccc12)c1ccncc1
target-or-test-system: SK-N-MC
pIC50: 5.89

## Task Please tell me: pIC50 of CN(C)C(=S)NN=C(c1ccccn1)c1ccccn1 , system SK-N-MC?
## Result 7.85

## Task Entry CCNC(=S)N/N=C/c1c(O)ccc2cccnc12 , system SK-N-MC: what pIC50 was measured?
## Result 6.72

## Task Please provide the recorded pIC50 for CN(C)C(=S)N/N=C/c1ccc2cccc(O)c2n1 , tested on SK-N-MC.
## Result 5.01

---

# Test system: SK-N-MC
# assay-explanation: Iron chelation activity in human SK-N-MC cells assessed as inhibition of 59Fe uptake from transferrin complex at 25 uM after 3 hrs by gamma scintillation counting relative to control
# Type: functional
# Set-up: scale not given: the % may be the effect or the level left
measure: Activity (%)
Value expressed in %; do not type the unit.

Previously resolved entries follow.
smiles-repr: CN(C)C(=S)N/N=C/c1c(O)ccc2cccnc12
measure: Activity
observed-value: 18
//
smiles-repr: Oc1cccc2ccc(/C=N/NC(=S)Nc3ccccc3)nc12
measure: Activity
observed-value: 49

## Task Please look up its Activity: CCNC(=S)N/N=C/c1ccc2cccc(O)c2n1
## Result 49

---

# Tested on: SK-N-MC
# assay-explanation: Antiproliferative activity against human SK-N-MC cells after 72 hrs by MTT assay
# Format: functional, cell-based
Entries and their measured IC50 follow.

smiles-repr: CCNC(=S)N/N=C/c1ccc2cccc(O)c2n1
IC50: > 12.5 µM
--
smiles-repr: CNC(=S)N/N=C/c1ccc2cccc(O)c2n1
IC50: > 12.5 µM
--
smiles-repr: CNC(=S)N/N=C/c1ccc2ccccc2n1
IC50: > 12.5 µM
--
smiles-repr: CN(C)C(=S)N/N=C/c1ccc2ccccc2n1
IC50: 0.81 µM
--
smiles-repr: Oc1ccc2cccnc2c1/C=N/NC(=S)Nc1ccccc1
IC50: 1.63 µM
--
smiles-repr: S=C(N/N=C/c1ccc2ccccc2n1)Nc1ccccc1
IC50: > 12.5 µM

## Task Identify the measured IC50 of CC(=O)N(O)CCCCCNC(=O)CCC(=O)N(O)CCCCCNC(=O)CCC(=O)N(O)CCCCCN for SK-N-MC.
## Result 12.5 µM

This collection of values is drawn from ChEMBL document CHEMBL2069263.
